System: T-47D breast
measurement_notes: NCI tumour cell line growth inhibition, 48 h; in the data active means GI50 below about 0.43 µM; inactive means the rest
Pick one and only one: yes (active), no (inactive)

# input Please share the test call associated with `CCn1c(-c2nonc2N)nc2cnc(Oc3cccc(NC(=O)c4ccc(N(C)C)cc4)c3)cc21` .
# output no

# input Please share the test call associated with COc1ccc(C(O)c2cc3c(N)c(C(=O)Nc4cccc(Br)c4C)sc3nc2C)cc1 (stereo not given) .
# output yes

# input Please share the test call associated with `O=[N+]([O-])/C=C/c1ccc(Cl)cc1[N+](=O)[O-]` .
# output no

# input Please share the test call associated with O=CN1N=C(c2cccc(Nc3ccnc4cc(Cl)ccc34)c2)CC1c1ccc(Cl)cc1 (stereo not given) .
# output no

# input Please share the test call associated with `NC(=O)/C(=C/n1cnc(-c2cc(C(F)(F)F)cc(C(F)(F)F)c2)n1)c1cncnc1` .
# output yes

---

Test system: T-47D breast
measurement_notes: NCI tumour cell line growth inhibition, 48 h
metric_name: TGI

Recorded results for 4 compounds are shown here.
[[record]]
compound = "CCOC(=O)C(=CNc1ccc(F)c(F)c1)C(=O)OCC"
assayed_target = "T-47D breast"
result = "> 100 µM"

[[record]]
compound = "C=C1CC[C@H]2C(C)=CC[C@H]3C(=C)C(=O)O[C@@H]3[C@@H]12"
assayed_target = "T-47D breast"
result = "> 100 µM"

[[record]]
compound = "CC(=O)/C(=C\\I)c1ccccc1"
assayed_target = "T-47D breast"
result = "3.83 µM"

[[record]]
compound = "O=C(O)c1ccccc1NCn1c(=S)sc2ccccc21"
assayed_target = "T-47D breast"
result = "> 100 µM"


# input Which value of TGI has been reported for `C/C(C=O)=C/[C@@]1(C)O[C@@H](C)[C@@](C)(O)[C@@H]1O` in the records?
# output > 100 µM

# input Which value of TGI has been reported for `COc1ccc2nc3cc(Cl)ccc3c(NCCCN3CCN(CCCNc4ccc5nnn6c7ccccc7c(=O)c4c56)CC3)c2c1` in the records?
# output > 25 µM

# input Which value of TGI has been reported for `COC(=O)/C=C\C(C#N)(C#N)N=Cc1ccc(OC)cc1` in the records?
# output 4.53 µM

# input Which value of TGI has been reported for `Cc1nc2ccccc2c(=O)n1/N=C(\N=Nc1cc(Cl)ccc1Cl)c1ccccc1` in the records?
# output > 100 µM

# input Which value of TGI has been reported for COc1cc(C2c3cc4c(cc3C(=O)C3CCC(=O)N32)OCO4)cc(OC)c1O (stereo not given) in the records?
# output > 50 µM

# input Which value of TGI has been reported for `O=[N+]([O-])c1ccc(N=Nc2c(O)[nH]c3ccccc23)c([N+](=O)[O-])c1` in the records?
# output 52.8 µM

---

Test system: SF-539 CNS
measurement_notes: NCI tumour cell line growth inhibition, 48 h
The compounds listed here are annotated with their GI50.

Recorded results for 2 compounds are shown here.
[[record]]
smiles = "COc1cc2c3c(n(CCCNCCCNCCCN)c(=O)c2cc1OC)-c1cc2c(cc1C3=O)OCO2"
assayed_target = "SF-539 CNS"
result = "> 100000 nM"

[[record]]
smiles = "CC(=O)Oc1cc2cnc3c4cc(OC(C)=O)c(OC(C)=O)cc4ccc3c2cc1OC(C)=O"
assayed_target = "SF-539 CNS"
result = "1300 nM"


// below: GI50 requested for another compound
# input Which value of GI50 has been reported for `C=CC(=O)Nc1cc2c(Nc3ccc(F)c(Cl)c3)ncnc2cc1C#CC(C)(C)N1CCN(C)CC1` in the records?
# output 1480 nM
